- Test system: HIF PHD (HIF1 ODD-luc reporter)
- assay-summary: HIF1 ODD-luc reporter assay in SH-SY5Y cells
- Type: cell-based
- measurement-conditions: read-out: EC50 of reporter activation
property-label: EC50 (µM)

> print(dat)
                                   compound  val
1  CCOC(=O)c1ccc(O)c(O)c1 [DHB, Ethyl 3,4-dihydroxybenzoate]  250
